test system: MS2 coat protein; assay: apparent KD of MS2 coat protein; designed switch direction (-1 OFF switch, 1 ON switch): -1; higher = weaker reporter binding; settings: input ligand: none
apparent KD of MS2 coat protein values by entry
Please respond with the number in µM and leave the unit unwritten.

-- ask For UCGGGUAGAGGAUAUACAUAGAAAUAGAUUCAUGUAAAACUACAUGAGGAUCACCCAUGUAGAAGGCUAUCCGU [Mat - Exclusion 2 - JL Mod - D56] (Eterna round: R97, puzzle: Exclusion 2) , what is its reported apparent KD of MS2 coat protein?
-- reply 0.0272

-- ask I'd like to know its apparent KD of MS2 coat protein. The sequence in question is AUCAGCUCGUGAGGAUAUGAACAUGAGGAUCACCCAUGUAAGAUCAAGCUGCUUCGGCAGCAAGUUCAGAAGGUACGAGCUGAU [ENG2/10-C3] (Eterna round: R96, puzzle: Exclusion NG 2)
-- reply 0.139

-- ask Quick one: apparent KD of MS2 coat protein of GAGUGCUGAGGAUAUACAUGAGGAUCACCCAUGUACUUCAGCUAGGAGACUAGCAUUGGUAGAAGGCAGUACUC [Mod of lroppy 22 - Jieux - Exclusion 3] (Eterna round: R97, puzzle: Exclusion 3) ?
-- reply 0.0142

Further cases:
-- ask Endpoint output: apparent KD of MS2 coat protein of GAAAACGUAGGAUAUUAAUACUCAGACAUGAGGAUCACCCAUGUUUGGUGGGUCGGAGAAUGAGAAGGGCGAUGAA [EX5 #14] (Eterna round: R97, puzzle: Exclusion 5) . Value?
-- reply 0.0897

-- ask May I ask what apparent KD of MS2 coat protein has been recorded for GGCAUCGGAGGAUAUACUUAAGGUGAUGUUCGAAGCUUUCUACUUGAGGAUCACCCAAGUAGAAGGCCGAUGCC [jl-ex2.4.77 ViennaUCT mod] (Eterna round: R97, puzzle: Exclusion 2) ?
-- reply 0.0196

-- ask Item UAUUAGCAAGCAAAUGGGUACAUGAGGAUCACCCAUGUGCUCGUCUUAUAAGGUACUGUGACGAAAGUCACGGUACC [Eli 91 v35] (Eterna round: R97, puzzle: Sensor, turn-off variant 1) has what recorded apparent KD of MS2 coat protein?
-- reply 0.0225

====

tested on: MS2 coat protein; test: apparent KD of MS2 coat protein; designed switch direction (-1 OFF switch, 1 ON switch): -1; higher = weaker reporter binding; details: input ligand: FMN 200 uM
Parameter: apparent KD of MS2 coat protein. Scope: all listed entries.
State the answer as a number, implicitly in nM.

# example entries with known answers
-- ask apparent KD of MS2 coat protein lookup needed for GUUUUCAGACGGAGAUCCUACAUGAGGAUCACCCAUGUCUCUCUAGCUAAUUGCUCGUCUUAUUCUCCUCUGUUCUC [Elimod 38 - Jieux - Sensor, turn-off variant 1] (Eterna round: R97, puzzle: Sensor, turn-off variant 1) , thanks.
-- reply 40

-- ask What does the record list as apparent KD of MS2 coat protein for CCGCUCCGUGUAGGAUAUUGGCGUGCUCUGCGCCGAGAAGGACAUGAGGAUCACCCAUGUAUGUUAUUAUCACGCGUGGCGCAU [Design 78] (Eterna round: R96, puzzle: Exclusion NG 1) ?
-- reply 30.6

-- ask I am curious: what apparent KD of MS2 coat protein value has been reported for CGGCUACGAUGAGGAUAUACGCACAUGAGGAUCACCCAUGUAAAUCACGGGUAAAGAUCGUCAUCGUAGAAGGCAUAAGGGCCC [Ormale] (Eterna round: R96, puzzle: Exclusion NG 2) ?
-- reply 33

-- ask // lookup apparent KD of MS2 coat protein for ACAAGCUUUUAGAUUUUCAACAUGAGGAUCACCCAUGUUCGUCUUAUGCUAGUGCGAGUGCGGUGUACUCGUAUUAG [JL TOV1 3.81 sellena mod] (Eterna round: R97, puzzle: Sensor, turn-off variant 1)
-- reply 18.2

-- ask Bench note: what apparent KD of MS2 coat protein did UCACCGCAAGGAUAUACUUGCGGUGAUGCUCGAAACUUUCUACUUGAGGAUCACCCAAGUAGAAGGUGCGGUGA [jl-ex2.4.68 ViennaUCT mod] (Eterna round: R97, puzzle: Exclusion 2) show?
-- reply 12.1

-- ask Given the sequence CAAUGACAUGAGGAUCACCCAUGUGAGGAUAUGGAGCGAGACCGCGCGGUCGCGUACACCAGAAGGCGCAGGCG [1st #66] (Eterna round: R97, puzzle: Exclusion 1) , what is its reported apparent KD of MS2 coat protein?
-- reply 89.3

-- ask Could you tell me which apparent KD of MS2 coat protein is on file for ACGCCCUGAGGAUAUCUUAUCCCGUACAUGAGGAUCACCCAUGUUUUCCUCCGGGCUUCGAGAGAAGGCAGGCCCA [Armus14] (Eterna round: R97, puzzle: Exclusion 5) ?
-- reply 88

-- ask // apparent KD of MS2 coat protein lookup, key: ACAUGAGGAUCACCCAUGUACAGGGUGUAGUUUCAUUGUUUGAAGGAUAUACUUAGUUAGUUGUUGUAGAAGGUCAUAUUUCAU [JR_ExcNG3_Sub001] (Eterna round: R96, puzzle: Exclusion NG 3)
-- reply 126

Please examine the following record next.
-- ask Fill in: apparent KD of MS2 coat protein of AACCUACAUGAGGAUCACCCAUGUGAGGAUAUAUUGUUAUUUAUAUUAUUUUUUAGAGGUAGAAGGCGCGUGAU [JR_Exc1_Sub020] (Eterna round: R97, puzzle: Exclusion 1) is ___
-- reply 15.9

====

tested on: MS2 coat protein; test: apparent KD of MS2 coat protein; designed switch direction (-1 OFF switch, 1 ON switch): -1; higher = weaker reporter binding; settings: input ligand: none
Attribute: apparent KD of MS2 coat protein
Please answer in the form of a number followed by its unit of measurement.

Answered cases to consult:
-- ask // lookup apparent KD of MS2 coat protein for GUGGGUUACAUGAGGAUCACCCAUGUAUAGUGGGAAAAGAUAUAGGAUAUAAUAUAAAAAUUAUAUUAGAAGGAUAGAGACUAG [AK ExNG3-1.1] (Eterna round: R96, puzzle: Exclusion NG 3)
-- reply 0.896 µM

-- ask Please report the recorded apparent KD of MS2 coat protein for AGCUAGAUAGGAUAUGCCCGAGAUAACAUGAGGAUCACCCAUGUGACCGAAUCUAAUCUAGCAGAAGGGUUUAGGA [Mod of ViennaUCT 16 - Jieux - Exclusion 5] (Eterna round: R97, puzzle: Exclusion 5) .
-- reply 0.0151 µM

-- ask Give its apparent KD of MS2 coat protein value. Item: ACAUGAGGAUCACCCAUGUGAACGAAAAGGCUCAUGUAGAGUGAGGAUAUGUGAGACGAACGAGAACAGAAGGCACAAGACAGG [Deportation 1 - Jieux - Exclusion NG 3] (Eterna round: R96, puzzle: Exclusion NG 3)
-- reply 0.0354 µM

Continuing:
-- ask Requested field: apparent KD of MS2 coat protein. Item: GCAGCACAUGUAGGAUAUCUGCACGUUUAGUGCAGAGAAGGACAUGAGGAUCACCCAUGUAAUUAAGAUCAAUUAUUAAGCUGC [ENG1/3-C2] (Eterna round: R96, puzzle: Exclusion NG 1)
-- reply 0.0442 µM

-- ask Entry UUAUGACAUGAGGAUCACCCAUGUAAGGAUAUCGAAGGAGAUGGUUACGAGGCCGCUACGAGAAGGUACGCGGG [Eternabot (L2) Solution 23] (Eterna round: R97, puzzle: Exclusion 1) has what apparent KD of MS2 coat protein?
-- reply 0.109 µM

-- ask Given the entry UACUGGACAGGAUAUGUUCUUGAGCACUUGAGGAUCACCCAAGUCAUCAAGAACUCAGGCACAGAAGGGUUUAUGA [salish99_ex5_r4_004] (Eterna round: R97, puzzle: Exclusion 5) , report its measured apparent KD of MS2 coat protein.
-- reply 0.0154 µM

-- ask Which apparent KD of MS2 coat protein reading was recorded for the sequence UCCUCACAUGAGGAUCACCCAUGUGAGGAUAUCAUGCUUCGUAGUAAACUACGAAGUGUGAGAAGGCACAUGGC [Omei Ex1 D15] (Eterna round: R97, puzzle: Exclusion 1) ?
-- reply 0.0196 µM

-- ask For the sequence UCCUCGUCAGGAUAUGUCUCGACGCGGUCCGCGUGCGGUCAACAGAAGGGACAUGAGGAUCACCCAUGUGCAGA [Eternabot (Original) Solution 38] (Eterna round: R97, puzzle: Exclusion 4) , what apparent KD of MS2 coat protein is on record?
-- reply 0.204 µM

-- ask Item under review: CCUCUACAUGAGGAUCACCCAUGUGAGGAUAUCAAAGCCGAAGCAAAUCUCCGGCCCAUGAGAAGGUGCAUGGA [EX1 A.9] (Eterna round: R97, puzzle: Exclusion 1) . Reported apparent KD of MS2 coat protein?
-- reply 0.0195 µM

-- ask Can you look up the measured apparent KD of MS2 coat protein of ACAUGAGGAUCACCCAUGUCAGGCAGGUCCACUCCGGCUGUUGAGGAUAUAGCCCGGUAUCCGCGCUAGAAGGUGAGGGCCGGC [Aenatbe mod 26] (Eterna round: R96, puzzle: Exclusion NG 3) for me?
-- reply 0.0216 µM

-- ask Would you kindly share the measured apparent KD of MS2 coat protein for GGCCCGGGAGGAUAUACAAUGGGCUCGGGAAAUCGGGCUCGACAUGAGGAUCACCCAUGUAGAAGGCCCGGGCC [-36.5, -34.6 kcal A 24%, 4,0] (Eterna round: R97, puzzle: Exclusion 2) ?
-- reply 0.0218 µM

-- ask Record request: apparent KD of MS2 coat protein value, item ACAUGAGGAUCACCCAUGUACAGGGUUUAGCCUCAUUGUUUGAAGGAUAUACUCAGUUAGUUGUUGUAGAAGGUCACCUUUUAU [JR_ExcNG3_Sub003] (Eterna round: R96, puzzle: Exclusion NG 3)
-- reply 1.36 µM

-- ask Item UGUUGUUACGCAGGAUAUCCACCAACAGGUGGAAGGAUAUGUACGCAGAAGGUUCGCCAACAGGCGGAGAAGGGCGGGUUAACA [pwkr exNG2 2xF7 2xFMN.26] (Eterna round: R96, puzzle: Exclusion NG 2) has what recorded apparent KD of MS2 coat protein?
-- reply 3.69 µM

-- ask I'd like to know its apparent KD of MS2 coat protein. The sequence in question is AGGUCACAUGAGGAUCACCCAUGUGAGGAUAUAGACUCAAGAGCUUCGGCUCUCAAGUCUAGAAGGCGCUAUGA [EX1 #50] (Eterna round: R97, puzzle: Exclusion 1)
-- reply 0.0285 µM

-- ask Requested field: apparent KD of MS2 coat protein. Item: AUGUAAGCGGAGGAUAUCUGGUGGAUACAGAUGGGAGAAGGUCGCACAUGAGGAUCACCCAUGUCGCAGAGAUG [Eternabot (L2) Solution 83] (Eterna round: R97, puzzle: Exclusion 6)
-- reply 0.0553 µM

-- ask Data request, read-out apparent KD of MS2 coat protein, for GUGCCGCGAGGAUAUACAGACGGGUCCAGUGCGUGUCUCGGACUUGAGGAUCACCCAAGUAGAAGGCGUCUCAG [salish99_ex2_r4_614] (Eterna round: R97, puzzle: Exclusion 2)
-- reply 0.031 µM

-- ask Fill in the blank: the reported apparent KD of MS2 coat protein of GAUGCCAGAGGAUAUGCAUCGGGUUCCUGGUUAAGGCUGCCACAUGAGGAUCACCCAUGUAGAAGGCUGCCGUC [EX2 B.5] (Eterna round: R97, puzzle: Exclusion 2) is ____.
-- reply 0.00994 µM

-- ask Find the recorded apparent KD of MS2 coat protein belonging to GAAAAGUGAGGAUAUUGUUUUUUUUUGAAAACGGGAGAGGGCAAGAAGGCACAUGAGGAUCACCCAUGUAAGGU [Alacar 2] (Eterna round: R97, puzzle: Exclusion 4) and report it.
-- reply 0.0441 µM
